# ASSAY_SYSTEM: T1, human D2H transporter receptor domain, amino acid residues 387-685, His-tag fusion protein (human, UniProt Q07837 387-685)
# T1 construct: Expressed as His-tag fusion, purified under denaturing conditions, coated on plates; not shown: poly-histidine tag (pET His-tag) at the NH2-terminal end
# T1 sequence: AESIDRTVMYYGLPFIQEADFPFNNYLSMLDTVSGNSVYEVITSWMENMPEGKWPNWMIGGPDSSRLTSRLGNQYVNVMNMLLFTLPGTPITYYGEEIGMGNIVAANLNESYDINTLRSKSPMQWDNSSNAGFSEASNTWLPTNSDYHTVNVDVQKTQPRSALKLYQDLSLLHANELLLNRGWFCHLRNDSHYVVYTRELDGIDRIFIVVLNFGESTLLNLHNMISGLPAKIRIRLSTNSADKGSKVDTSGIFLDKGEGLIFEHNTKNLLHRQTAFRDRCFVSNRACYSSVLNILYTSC
# ASSAY_OVERVIEW: phage ELISA, coated D2H domain
READOUT_NAME: OD (OD 650 nm)
Numeric answer only, unit OD 650 nm assumed.

Reference set (5 entries):
binder="RYSGLSPRDNGPACSQEATLEGCGAQRLMSTRRKGRNSRPGWTL (pIII and flanks not included) [phage DCX42]" quantitative_readout=0.158
binder="RWNWTVLPATGGHYWTRSTDYHAINNHRPSIPHQHPTPI (pIII and flanks not included) [phage DCX33]" quantitative_readout=0.616
binder="SQGSKQCMQYRTGRLTVGSEYGCGMNPARHATPAYPARLLPRYR (pIII and flanks not included) [phage DCX11]" quantitative_readout=0.222
binder="SVGNDKTSRPVSFYGRVSDLWNASLMPKRTPSSKRHDDG (pIII and flanks not included) [phage DCX45]" quantitative_readout=0.336
binder="SGRTTSEISGLWGWGDDRSGYGWGNTLRPNYIPYRQATNRHRYT (pIII and flanks not included) [phage DCX26]" quantitative_readout=0.956

Okay, next one:
Lab note: RYKHDIGCDAGVDKKSSSVRGGCGAHSSPPRAGRGPRGTMVSRL (pIII and flanks not included) [phage DCX8] gave OD of 0.163
